Where do these numbers come from? They come from PubChem BioAssay (NCI).

- assay-overview: NCI Yeast Anticancer Drug Screen. Data for the mec2-1 strain (AID 157)
- assay-conditions: S. cerevisiae mec2-1 strain, at 50.0 µM (retest, dose inferred, filed as 5.0)
This is part of a sample that, as a whole, favours compounds with a hit. Of some 79,000 tested, about 15% had one in any assay. Calls of active or inactive are those of the source. No stated cut-off is given here; in the data, active means growth inhibition above about 70%; inactive means the rest.
Classes used: True (active), False (inactive)

{"compound": "CC1(C)CC(=O)C(C(=O)Nc2cccs2)=C(O)C1", "group-label": "False"}
{"compound": "COc1ccc(C(C)c2cc3c(cc2OCC(C)=O)OCO3)cc1 (stereo not given)", "group-label": "False"}
{"compound": "O=C(NOC(=O)c1ccc([N+](=O)[O-])cc1)c1ccc(Cl)cc1", "group-label": "True"}
{"compound": "CN1C(=O)C(CC(=O)O)NC1=S (stereo not given)", "group-label": "False"}
{"compound": "O=c1c2ccccc2nc(-c2cccc([N+](=O)[O-])c2)n1O", "group-label": "True"}
